target_of_assay: T1, FZD1 CRD (Homo sapiens, UniProt Q9UP38)
T1 construct: D112-P238; GPI anchor signal (C); expressed in transfected cells; host or cells: CHO cells, lentiviral pLenti-puro
assay_info: Flow cytometry of anti-FZD5 Fab binding to CHO cells overexpressing Frizzled CRD
parameter_measured: Median fluorescence, Frizzled CRD overexpressed on CHO cells: FZD1
Keep it simple and answer with nothing but the number.

molecule="Fab-2900: anti-FZD5 Fab with antibody variable region Fv-2900; CDR SEQ ID NOs: 35, 36, 39, 78, 115, 153 (antibody, V domains shown) VH: EVQLVESGGGLVQPGGSLRLSCAASGFNLSSYYIHWVRQAPGKGLEWVASISSSSSSTSYADSVKGRFTISADTSKNTAYLQMNSLRAEDTAVYYCARGALDYWGQGTLVTVSS VL: DIQMTQSPSSLSASVGDRVTITCRASQSVSSAVAWYQQKPGKAPKLLIYSASSLYSGVPSRFSGSRSGTDFTLTISSLQPEDFATYYCQQWYSGSSLFTFGQGTKVEIK" recorded_number=31.06
molecule="Fab-2907: anti-FZD5 Fab with antibody variable region Fv-2907; CDR SEQ ID NOs: 35, 36, 46, 85, 122, 159 (antibody, V domains shown) VH: EVQLVESGGGLVQPGGSLRLSCAASGFNIYSSYMHWVRQAPGKGLEWVASISSYSGSTYYADSVKGRFTISADTSKNTAYLQMNSLRAEDTAVYYCARSSWGAYIVSYGFDYWGQGTLVTVSS VL: DIQMTQSPSSLSASVGDRVTITCRASQSVSSAVAWYQQKPGKAPKLLIYSASSLYSGVPSRFSGSRSGTDFTLTISSLQPEDFATYYCQQVGYWWGLITFGQGTKVEIK" recorded_number=3.28

Input: Give the value of Median fluorescence, Frizzled CRD overexpressed on CHO cells: FZD1 reported for the following: Fab-2928: anti-FZD5 Fab with antibody variable region Fv-2928; CDR SEQ ID NOs: 35, 36, 67, 105, 143, 175 (antibody, V domains shown) VH: EVQLVESGGGLVQPGGSLRLSCAASGFNISYSSIHWVRQAPGKGLEWVASIYPSYSSTYYADSVKGRFTISADTSKNTAYLQMNSLRAEDTAVYYCARYYAMDYWGQGTLVTVSS VL: DIQMTQSPSSLSASVGDRVTITCRASQSVSSAVAWYQQKPGKAPKLLIYSASSLYSGVPSRFSGSRSGTDFTLTISSLQPEDFATYYCQQAFYYPITFGQGTKVEIK
Output: 18.43

Input: Give the value of Median fluorescence, Frizzled CRD overexpressed on CHO cells: FZD1 reported for the following: Fab-2929: anti-FZD5 Fab with antibody variable region Fv-2929; CDR SEQ ID NOs: 35, 36, 68, 106, 144, 162 (antibody, V domains shown) VH: EVQLVESGGGLVQPGGSLRLSCAASGFNISYYYIHWVRQAPGKGLEWVASIYPSSSSTSYADSVKGRFTISADTSKNTAYLQMNSLRAEDTAVYYCARGAMDYWGQGTLVTVSS VL: DIQMTQSPSSLSASVGDRVTITCRASQSVSSAVAWYQQKPGKAPKLLIYSASSLYSGVPSRFSGSRSGTDFTLTISSLQPEDFATYYCQQWYSSYGLITFGQGTKVEIK
Output: 7.64
